# protocol.description: Ratio of AUC (0 to infinity) in lung of CD1 mouse to AUC (0 to infinity) in plasma of CD1 mouse at 40 mg/kg, po
# Assay type: ADME, organism-based
# Design: dose 40 mg/kg, route oral
# condition.context: read-out: Ratio AUC
Kp vs 2: less than gives 1; not less than gives -1.

Here's what some known entries look like.
{"columns": ["compound.string", "category"],
 "data": [
  ["O=[N+]([O-])c1cn2c(n1)OC[C@@H](OCC#Cc1ccc(-c3ccc(OC(F)(F)F)cc3)cc1)C2", 1],
  ["O=[N+]([O-])c1cn2c(n1)OC[C@@H](OCC#Cc1cccc(-c3ccc(OC(F)(F)F)cc3)c1)C2", -1],
  ["O=[N+]([O-])c1cn2c(n1)OC[C@@H](OCCCC#Cc1ccc(OC(F)(F)F)cc1)C2", 1],
  ["O=[N+]([O-])c1cn2c(n1)OC[C@@H](OCCCc1ccc(-c3ccc(OC(F)(F)F)cc3)cc1)C2", -1]
]}

Problem: Please let me know if O=[N+]([O-])c1cn2c(n1)OC[C@@H](Oc1ccc(-c3ccc(OC(F)(F)F)cc3)cc1)C2 shows Kp below 2.
Solution: -1

----------
# Test system: Mycobacterium tuberculosis
# protocol.description: Antituberculosis activity against Mycobacterium tuberculosis H37Rv under aerobic conditions by microplate alamar blue assay
# Format: functional
Measured MIC by item
Number only, in µM; omit the unit.

{"columns": ["compound", "MIC (µM)"],
 "data": [
  ["O=[N+]([O-])c1cn2c(n1)OC[C@@H](Oc1ccc(-c3ccc(C(F)(F)F)cc3)cc1)C2", 0.39],
  ["O=[N+]([O-])c1cn2c(n1)OC[C@@H](Oc1ccc(-c3ccc(OC(F)(F)F)cc3)cn1)C2", 0.39],
  ["O=[N+]([O-])c1cn2c(n1)OC[C@@H](OCCCc1ccc(-c3ccc(OC(F)(F)F)cc3)cc1)C2", 0.15],
  ["O=[N+]([O-])c1cn2c(n1)OC[C@@H](OCCCC#Cc1ccc(-c3ccc(C(F)(F)F)nc3)cc1)C2", 0.11],
  ["CC(O[C@@H]1COc2nc([N+](=O)[O-])cn2C1)c1ccc(-c2ccc(F)cc2)cc1 (stereo partly drawn)", 0.22]
]}

Item: O=[N+]([O-])c1cn2c(n1)OC[C@@H](OCc1ccc(C(F)(F)F)cn1)C2 | MIC: 1.5

Item: O=[N+]([O-])c1cn2c(n1)OC[C@@H](OCCOc1ccc(-c3ccc(C(F)(F)F)nc3)cn1)C2 | MIC: 0.22

Item: O=[N+]([O-])c1cn2c(n1)OC[C@@H](Oc1ccc(-c3ccc(C(F)(F)F)nc3)cn1)C2 | MIC: 0.42

----------
# protocol.description: Cmax in lung of CD1 mouse at 40 mg/kg, po
# Format: ADME, organism-based
# Set-up: dose 40 mg/kg, route oral
outcome.measure: log10 Cmax (log10 of the value in ng/mL)
Form field - Quantity: Cmax; Unit: ng/mL; Scale: log10

Reference set (4 entries):
{"columns": ["compound.string", "log10 Cmax"],
 "data": [
  ["O=[N+]([O-])c1cn2c(n1)OC[C@@H](OCC#Cc1cccc(-c3ccc(OC(F)(F)F)cc3)c1)C2", 4.11],
  ["O=[N+]([O-])c1cn2c(n1)OC[C@@H](OCC#Cc1ccc(-c3ccc(OC(F)(F)F)cc3)cc1)C2", 2.88],
  ["O=[N+]([O-])c1cn2c(n1)OC[C@@H](OCCCc1ccc(-c3ccc(OC(F)(F)F)cc3)cc1)C2", 4.00],
  ["O=[N+]([O-])c1cn2c(n1)OC[C@@H](Oc1ccc(-c3ccc(OC(F)(F)F)cc3)cc1)C2", 4.20]
]}

Next compound, log10 Cmax to be filled in.
Item: O=[N+]([O-])c1cn2c(n1)OC[C@@H](OCCCC#Cc1ccc(OC(F)(F)F)cc1)C2 | log10 Cmax: 3.43

----------
# Test system: Mycobacterium tuberculosis
# protocol.description: Antituberculosis activity against Mycobacterium tuberculosis H37Rv under anaerobic conditions by fluorescence based low-oxygen-recovery assay
# Format: functional
outcome.measure: MIC (µM)
Number only, in µM; omit the unit.

{"columns": ["compound", "MIC (µM)"],
 "data": [
  ["O=[N+]([O-])c1cn2c(n1)OC[C@@H](Oc1ncc(-c3ccc(F)cc3)cn1)C2", 7.4]
]}

Next compound, MIC to be filled in.
Item: O=[N+]([O-])c1cn2c(n1)OC[C@@H](Oc1cc(-c3ccc(C(F)(F)F)cc3)ncn1)C2 | MIC: 17

----------
# Tested on: Mycobacterium tuberculosis
# protocol.description: Antituberculosis activity against Mycobacterium tuberculosis H37Rv under anaerobic conditions by fluorescence based low-oxygen-recovery assay
# Assay type: functional
Using MIC as the sorting value, the categories are low-valued (below 3 µM), mid-valued (3 µM to below 4 µM), high-valued (4 µM or more)

{"columns": ["compound", "category"],
 "data": [
  ["O=[N+]([O-])c1cn2c(n1)OC[C@@H](Oc1ccc(-c3ccc(C(F)(F)F)nc3)cn1)C2", "high-valued"],
  ["O=[N+]([O-])c1cn2c(n1)OC[C@@H](Oc1ccnc(-c3ccc(C(F)(F)F)nc3)c1)C2", "high-valued"],
  ["O=[N+]([O-])c1cn2c(n1)OC[C@@H](OCCCC#Cc1ccc(C(F)(F)F)cn1)C2", "mid-valued"],
  ["O=[N+]([O-])c1cn2c(n1)OC[C@@H](OCC#Cc1cccc(-c3ccc(C(F)(F)F)nc3)c1)C2", "low-valued"],
  ["O=[N+]([O-])c1cn2c(n1)OC[C@@H](OCC#Cc1ccc(-c3ccc(F)cc3)cc1)C2", "low-valued"]
]}

Now let's try a different one.
Problem: Bin? O=[N+]([O-])c1cn2c(n1)OC[C@@H](Oc1cccc(-c3ccc(OC(F)F)cc3)n1)C2
Solution: high-valued

----------
# protocol.description: Aqueous solubility of the compound in water at pH 7 by HPLC analysis
# Assay type: physicochemical
Measured solubility by item
Number only, in µg/mL; omit the unit.

{"columns": ["compound.string", "solubility, µg/mL"],
 "data": [
  ["O=[N+]([O-])c1cn2c(n1)OC[C@@H](OCCOc1ncc(-c3ccc(OC(F)(F)F)cc3)cn1)C2", 21],
  ["O=[N+]([O-])c1cn2c(n1)OC[C@@H](OCCCc1ccc(-c3ccc(OC(F)(F)F)cc3)cc1)C2", 1.7],
  ["O=[N+]([O-])c1cn2c(n1)OC[C@@H](OCCCc1ccc(OCc3ccccc3)cc1)C2", 3.8],
  ["O=[N+]([O-])c1cn2c(n1)OC[C@@H](OC/C=C/c1ccc(C(F)(F)F)nc1)C2", 45],
  ["O=[N+]([O-])c1cn2c(n1)OC[C@@H](OCc1ccc(C(F)(F)F)cn1)C2", 188]
]}

Item: O=[N+]([O-])c1cn2c(n1)OC[C@@H](OCc1ccc(OCc3ccccc3)cc1)C2 | solubility: 0.76

Item: O=[N+]([O-])c1cn2c(n1)OC[C@@H](OCCCC#Cc1ccc(C(F)(F)F)nc1)C2 | solubility: 16

Item: O=[N+]([O-])c1cn2c(n1)OC[C@@H](Oc1ccnc(-c3ccc(OC(F)(F)F)cc3)c1)C2 | solubility: 0.53

Item: O=[N+]([O-])c1cn2c(n1)OC[C@@H](Oc1cc(-c3ccc(OC(F)(F)F)cc3)ccn1)C2 | solubility: 0.13

Item: O=[N+]([O-])c1cn2c(n1)OC[C@@H](OC/C=C/c1ccc(-c3ccc(OC(F)(F)F)cc3)cc1)C2 | solubility: 0.5

Item: O=[N+]([O-])c1cn2c(n1)OC[C@@H](OCC#Cc1ccc(-c3ccc(OC(F)(F)F)cc3)nc1)C2 | solubility: 0.72

Item: O=[N+]([O-])c1cn2c(n1)OC[C@@H](OCCOc1ccc(C(F)(F)F)nc1)C2 | solubility: 58

Item: O=[N+]([O-])c1cn2c(n1)OC[C@@H](OCC#Cc1ccc(-c3ccc(OC(F)(F)F)cc3)cc1)C2 | solubility: 0.07

Item: O=[N+]([O-])c1cn2c(n1)OC[C@@H](OCCOc1ccc(-c3ccc(OC(F)(F)F)cc3)cn1)C2 | solubility: 0.79

Item: O=[N+]([O-])c1cn2c(n1)OC[C@@H](OC/C=C/c1ccc(OC(F)(F)F)cc1)C2 | solubility: 1.5

Item: O=[N+]([O-])c1cn2c(n1)OC[C@@H](Oc1ccc(-c3ccc(OC(F)(F)F)cc3)nc1)C2 | solubility: 0.27

Item: O=[N+]([O-])c1cn2c(n1)OC[C@@H](Oc1cc(-c3ccc(OC(F)(F)F)cc3)ncn1)C2 | solubility: 0.88

Item: O=[N+]([O-])c1cn2c(n1)OC[C@@H](OCCOc1ccc(C(F)(F)F)cn1)C2 | solubility: 42
